# ASSAY METHOD TEXT: Bioavailability after intravenous, oral and sublingual administration in rat
# MEASUREMENT SETUP: in vivo, po, rats, Compound 8 dosed orally, read-out: oral bioavailability
MEASURE: bioavailability

bioavailability lookup needed for Oc1ccc(C2(c3ccccc3F)CCC(F)(F)CC2)cc1 , thanks.
~8%

====

# TARGET UNDER TEST: ERβ (Homo sapiens)
# ASSAY METHOD TEXT: Luciferase reporter gene assay (3*ERE) in HEK293 cells, ERβ
# Format: cell-based
# Design: expressed in transfected cells; host or cells: HEK293 cells, transient transfection
# MEASUREMENT SETUP: HEK293, 48 h, read-out: Luciferase Erβ % Eff
We begin with a simple list: items and their reported Emax.
Reply numerically in %, unit not repeated.

Oc1ccc(C2(c3ccccc3Cl)CCCCC2)cc1F [Compound 957] = 62
Oc1ccc(C2(c3ccccc3F)CCC(F)(F)CC2)cc1F [Compound 10] = 55
Oc1ccc(C2(c3ccccc3F)CCC(F)(F)CC2)cc1 [Compound 8] = 96
Oc1ccc(C2(c3ccccc3Cl)CCC(F)(F)CC2)cc1F [Compound 14] = 52

Here's the next entry for you.
Tell me the measured Emax of Oc1ccc(C2(c3cccc(F)c3Cl)CCCCC2)cc1 [Compound 623] , please.
99

====

# ASSAY METHOD TEXT: Metabolic stability in liver microsomes, human
# Assay type: in vitro ADME
# MEASUREMENT SETUP: low value = metabolically stable
MEASURE: microsomal CLint (µL/min/mg)
Answer with a number only, understood to be in µL/min/mg.

// known answers, use as guide
Oc1ccc(C2(c3ccccc3Cl)CCCCC2)cc1F = 20
Oc1ccc(C2(c3ccccc3F)CCC(F)(F)CC2)cc1F = 11
Oc1ccc(C2(c3ccccc3F)CCCCC2)cc1 = 27

// returns reported microsomal CLint for input Oc1ccc(C2(c3ccccc3F)CCC(F)(F)CC2)cc1
11

====

# ASSAY METHOD TEXT: Bioavailability after intravenous and sublingual administration in male beagle dogs
# Assay type: in vivo
# MEASUREMENT SETUP: male, beagle, plasma; dog, intravenous 1 mg/kg
MEASURE: clearance (mL/min/kg)
Reply with just the number (in mL/min/kg).

Could you share which clearance value was measured for Oc1ccc(C2(c3ccccc3F)CCC(F)(F)CC2)cc1 ?
47

====

# TARGET UNDER TEST: UniProtKB P03372
# Sequence (P03372 whole entry, species assumed): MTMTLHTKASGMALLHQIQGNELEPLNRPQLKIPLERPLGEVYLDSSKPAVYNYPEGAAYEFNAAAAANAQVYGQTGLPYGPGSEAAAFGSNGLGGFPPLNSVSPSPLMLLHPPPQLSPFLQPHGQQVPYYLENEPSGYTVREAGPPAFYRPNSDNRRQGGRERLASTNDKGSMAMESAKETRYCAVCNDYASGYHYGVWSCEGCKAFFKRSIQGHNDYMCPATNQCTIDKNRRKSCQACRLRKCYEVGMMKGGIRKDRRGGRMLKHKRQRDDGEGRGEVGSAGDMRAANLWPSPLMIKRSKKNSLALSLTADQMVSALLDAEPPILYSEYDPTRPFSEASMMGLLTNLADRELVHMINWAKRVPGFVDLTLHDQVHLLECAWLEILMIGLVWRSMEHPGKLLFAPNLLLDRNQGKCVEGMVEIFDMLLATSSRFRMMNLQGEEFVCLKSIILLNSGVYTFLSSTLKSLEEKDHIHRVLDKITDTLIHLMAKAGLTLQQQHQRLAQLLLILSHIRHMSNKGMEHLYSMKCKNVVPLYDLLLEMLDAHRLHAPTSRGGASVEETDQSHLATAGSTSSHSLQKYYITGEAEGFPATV
# ASSAY METHOD TEXT: Competitive 3H-estradiol binding assay, ERα
# MEASUREMENT SETUP: 1 nM 3H-estradiol, HEK293T cytosolic extract; read-out: Binding ERα pKi (converted)
MEASURE: log10(Ki) (log10 of the value in nM)
Reminder: these figures are log10 of reported Ki, in nM before transformation.

Some solved entries appear below for comparison.
Oc1ccc(C2(c3ccccc3F)CCC(F)(F)CC2)cc1F = 2.40
Oc1ccc(C2(c3cccc(F)c3Cl)CCCCC2)cc1 = 2.90
Oc1ccc(C2(c3ccccc3Cl)CCC(F)(F)CC2)cc1F = 1.70
Oc1ccc(C2(c3ccccc3Cl)CCCCC2)cc1 = 3.00
Oc1ccc(C2(c3ccccc3)CCCCC2)cc1 = 3.00

Reported log10(Ki) for UniProtKB P03372, given Oc1ccc(C2(c3ccccc3Cl)CCC(F)(F)CC2)cc1 ?
2.00

Please provide the recorded log10(Ki) for Oc1ccc(C2(c3ccccc3Cl)CCCCC2)cc1F , tested on UniProtKB P03372.
2.30

Report log10(Ki) for Oc1ccc(C2(c3ccccc3F)CCC(F)(F)CC2)cc1 tested on UniProtKB P03372.
1.90

====

# TARGET UNDER TEST: ERβ (Homo sapiens)
# ASSAY METHOD TEXT: R-SAT functional assay, ERβ
# Type: cell-based
# Set-up: expressed in transfected cells; host or cells: transient transfection
# MEASUREMENT SETUP: NIH3T3, read-out: R-SAT Erβ % Eff
MEASURE: Emax

Observe how each entry below is paired with its result.
Oc1ccc(C2(c3ccccc3Cl)CCC(F)(F)CC2)cc1F [Compound 14] = 60%
Oc1ccc(C2(c3cccc(F)c3Cl)CCCCC2)cc1 [Compound 623] = 89%
Oc1ccc(C2(c3ccccc3F)CCC(F)(F)CC2)cc1F [Compound 10] = 57%
Oc1ccc(C2(c3ccccc3Cl)CCCCC2)cc1F [Compound 957] = 94%

Could you now look at the following compound, please?
Look up Emax: Oc1ccc(C2(c3ccccc3F)CCC(F)(F)CC2)cc1 [Compound 8]
69%

====

# TARGET UNDER TEST: ERβ (Homo sapiens, UniProt Q92731)
# Sequence (Q92731 whole entry, species assumed): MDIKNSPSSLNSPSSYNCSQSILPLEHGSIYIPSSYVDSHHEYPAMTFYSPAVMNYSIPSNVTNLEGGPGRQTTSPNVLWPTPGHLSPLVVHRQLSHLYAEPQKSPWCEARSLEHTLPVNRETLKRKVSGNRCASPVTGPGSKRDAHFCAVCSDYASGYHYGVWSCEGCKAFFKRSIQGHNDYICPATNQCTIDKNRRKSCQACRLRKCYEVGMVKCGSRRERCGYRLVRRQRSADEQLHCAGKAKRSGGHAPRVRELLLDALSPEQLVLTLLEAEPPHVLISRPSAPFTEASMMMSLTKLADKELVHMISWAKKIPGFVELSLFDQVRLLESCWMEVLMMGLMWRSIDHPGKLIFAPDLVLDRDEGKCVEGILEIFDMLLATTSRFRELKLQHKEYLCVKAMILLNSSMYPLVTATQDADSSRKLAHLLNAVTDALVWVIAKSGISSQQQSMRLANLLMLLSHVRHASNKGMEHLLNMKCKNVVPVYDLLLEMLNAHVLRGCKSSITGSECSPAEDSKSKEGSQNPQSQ
# Lookup of reported Ki keyed by entry
# output: bare number, implied unit nM

Oc1ccc(C2(c3ccccc3F)CCC(F)(F)CC2)cc1 = 6.31
Oc1ccc(C2(c3ccccc3Cl)CCCCC2)cc1F = 15.8

Proceeding to the next compound to report its Ki.
Lab note: need Ki with ERβ (Homo sapiens, UniProt Q92731) for entry Oc1ccc(C2(c3cccc(F)c3Cl)CCCCC2)cc1 , please look it up.
6.31

====

pEC50: recorded values
# TARGET UNDER TEST: ERβ (Homo sapiens, UniProt Q92731)
# ASSAY METHOD TEXT: R-SAT functional assay, ERβ
# Format: cell-based
# Set-up: expressed in transfected cells; host or cells: transient transfection
API: returns pEC50 as number; meaning -log10 of concentration in mol/L.

Oc1ccc(C2(c3ccccc3Cl)CCCCC2)cc1 = 8.20
Oc1ccc(C2(c3cccc(F)c3Cl)CCCCC2)cc1 = 8.20

Now for the molecule whose pEC50 we want.
I would be grateful if you could share the reported pEC50 for Oc1ccc(C2(c3ccccc3F)CCCCC2)cc1 .
7.90
